- System: Staphylococcus aureus
- test.name: Susceptibility testing (MIC) Assay 1, broth microdilution
- Assay type: cell-based
- setup.conditions: Staphylococcus aureus, in vivo strain, MRQR; read-out: Sau(e) MIC
Recorded log10 of MIC by entry
In plain terms, each number is the log10 of measured MIC in µM.

Give the measured log10 of MIC of C[C@@H]1CN2c3c(cc4c(N5C(=O)OC[C@@H]5C(F)F)noc4c3F)CC3(C(=O)NC(=O)NC3=O)[C@H]2[C@H](C)O1 .
-0.26

Give the measured log10 of MIC of C[C@@H]1CN2c3c(cc4c(N5C(=O)OC[C@H]5c5cnccn5)noc4c3F)CC3(C(=O)NC(=O)NC3=O)[C@H]2[C@H](C)O1 .
0.49

Give the measured log10 of MIC of CC[C@@H]1COC(=O)N1c1noc2c(F)c3c(cc12)CC1(C(=O)NC(=O)NC1=O)[C@H]1[C@H](C)O[C@H](C)CN31 .
1.08

====

- Tested on: Staphylococcus aureus
- test.name: Susceptibility testing (MIC) Assay 1, broth microdilution
- Type: cell-based
- setup.conditions: Staphylococcus aureus, in vivo strain, MRQR; read-out: Sau(e) MIC
Binary call on MIC with cut-off 0.8 µM: strictly below means Criterion met, and equality or higher means Criterion not met.

For this compound, is MIC lower than 0.8 µM? C[C@@H]1CN2c3c(cc4c(N5C[C@H](CF)OC5=O)noc4c3F)CC3(C(=O)NC(=O)NC3=O)[C@H]2[C@H](C)O1
Criterion not met

For this compound, is MIC lower than 0.8 µM? C[C@@H]1CN2c3c(cc4c(N5C(=O)OC[C@@H]5CN=[N+]=[N-])noc4c3F)CC3(C(=O)NC(=O)NC3=O)[C@H]2[C@H](C)O1
Criterion not met

For this compound, is MIC lower than 0.8 µM? COC[C@H]1COC(=O)N1c1noc2c(F)c3c(cc12)CC1(C(=O)NC(=O)NC1=O)[C@H]1[C@H](C)O[C@H](C)CN31 (single isomer, unassigned) [Example 67]
Criterion met

For this compound, is MIC lower than 0.8 µM? COC[C@@H]1CN(c2noc3c(Cl)c4c(cc23)CC2(C(=O)NC(=O)NC2=O)[C@H]2[C@H](C)O[C@H](C)CN42)C(=O)O1
Criterion not met

For this compound, is MIC lower than 0.8 µM? C[C@@H]1CN(c2noc3c(F)c4c(cc23)CC2(C(=O)NC(=O)NC2=O)[C@H]2[C@H](C)O[C@H](C)CN42)C(=O)O1
Criterion met

New cases:
For this compound, is MIC lower than 0.8 µM? C=CC[C@H]1COC(=O)N1c1noc2c(F)c3c(cc12)CC1(C(=O)NC(=O)NC1=O)[C@H]1[C@H](C)O[C@H](C)CN31
Criterion met

====

Recorded pIC50 by entry
- assayed.target: Escherichia coli DNA gyrase A/B tetramer (Escherichia coli (strain K12), UniProt P0AES4+P0AES6)
- test.name: DNA gyrase supercoiling activity fluorescence polarisation assay
- Format: biochemical
- setup.conditions: Eco Gyr FP Mean IC50, E. coli DNA gyrase supercoiling, 0.3 mM ATP
Schema: pIC50 number; meaning minus log10 of the concentration expressed in molar units.

Answered cases to consult:
Give the measured pIC50 of C[C@@H]1CN2c3c(cc4c(N5C(=O)OC[C@@H]5CCO)noc4c3F)CC3(C(=O)NC(=O)NC3=O)[C@H]2[C@H](C)O1 [Example 31] .
6.38

Give the measured pIC50 of C[C@@H]1CN2c3c(cc4c(N5C[C@H](C#N)OC5=O)noc4c3F)CC3(C(=O)NC(=O)NC3=O)[C@H]2[C@H](C)O1 [Example 75] .
6.15

Give the measured pIC50 of C[C@@H]1CN2c3c(cc4c(N5C(=O)OC[C@@H]5CCCF)noc4c3Cl)CC3(C(=O)NC(=O)NC3=O)[C@H]2[C@H](C)O1 [Example 34] .
6.64

Give the measured pIC50 of C[C@@H]1CN2c3c(cc4c(N5C(=O)OC[C@@H]5Cc5ccccc5)noc4c3F)CC3(C(=O)NC(=O)NC3=O)[C@H]2[C@H](C)O1 [Example 11] .
5.92

Give the measured pIC50 of CC[C@@H]1CN(c2noc3c(F)c4c(cc23)CC2(C(=O)NC(=O)NC2=O)[C@H]2[C@H](C)O[C@H](C)CN42)C(=O)O1 [Example 14] .
6.24

Give the measured pIC50 of C[C@@H]1CN2c3c(cc4c(N5C(=O)OC[C@@H]5[C@@H](O)CO)noc4c3F)CC3(C(=O)NC(=O)NC3=O)[C@H]2[C@H](C)O1 [Example 72] .
6.54

New cases:
Give the measured pIC50 of C[C@@H]1CN2c3c(cc4c(N5C(=O)OC[C@@H]5c5cnccn5)noc4c3F)CC3(C(=O)NC(=O)NC3=O)[C@H]2[C@H](C)O1 [Example 62] .
5.85

Give the measured pIC50 of C[C@@H]1CN2c3c(cc4c(N5C(=O)OC[C@@H]5C)noc4c3F)CC3(C(=O)NC(=O)NC3=O)[C@H]2[C@H](C)O1 [Example 5] .
6.77

Give the measured pIC50 of COCCOC[C@H]1COC(=O)N1c1noc2c(F)c3c(cc12)CC1(C(=O)NC(=O)NC1=O)[C@H]1[C@H](C)O[C@H](C)CN31 [Example 50] .
6.70
